FYI, the data here is from patent US6608082B1.

Target: MCR-1 (Homo sapiens)
Construct: expressed in transfected cells; host or cells: HEK 293
Sequence (Q01726 whole entry): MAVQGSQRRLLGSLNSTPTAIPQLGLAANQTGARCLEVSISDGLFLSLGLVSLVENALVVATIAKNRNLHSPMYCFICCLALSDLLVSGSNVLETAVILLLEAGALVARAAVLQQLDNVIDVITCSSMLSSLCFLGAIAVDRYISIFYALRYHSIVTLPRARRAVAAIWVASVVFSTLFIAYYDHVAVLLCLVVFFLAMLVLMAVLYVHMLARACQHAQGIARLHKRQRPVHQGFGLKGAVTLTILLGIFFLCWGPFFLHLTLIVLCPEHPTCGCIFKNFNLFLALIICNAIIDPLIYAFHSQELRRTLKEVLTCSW
Experiment: Melanocortin receptor binding assay, competition with 125I-HP 467, HEK 293 cells expressing hMCR-1
Settings: inhibition of binding of 125I-HP 467, HEK 293 cells expressing MCR-1; read-out: MC-1 IC50
Protocol: All cell culture media and reagents were obtained from GibcoBRL (Gaithersburg Md.), except for COSMIC CALF SERUM (HyClone; Logan Utah). Cells were suspended in PBS, 10% COSMIC CALF SERUM and 1 mM CaCl2. […] To assay isoquinoline compounds, binding assays were performed in duplicate in a 96 well format. […] Cells were harvested on GF/B filter plates as described above and counted.
# reported pIC50; entries follow
Quick note: pIC50 values are minus log10 of concentrations in mol/L.

Here's what some known entries look like.
Molecule | pIC50
CCNc1ccc(C2C(CNCCc3ccccc3)c3ccccc3CN2CCCC(CN)NCCc2ccccc2)cc1 (stereo not shown) [TRG 2411-155] | 7.05
Cc1ccc(CNC(CN)CCCCN2Cc3ccccc3C(CNCCc3ccc(O)cc3)C2c2cc(C(F)(F)F)cc(C(F)(F)F)c2)cc1 (stereo not shown) | 5.50

What value of pIC50 has been recorded for this entry: COc1ccc(CCNCC2c3ccccc3CN(CCCCC(CN)NCc3ccc(OC)cc3)C2c2cccc(C(F)(F)F)c2)cc1 (stereo not shown)
5.81

Request the reported pIC50 associated with CCNc1ccc(C2C(CNCCc3ccccc3)c3ccccc3CN2CCCC(CN)NCCc2ccc(Br)cc2)cc1 (stereo not shown)
6.92

Consider the molecule shown here: CCNc1ccc(C2C(CNCCc3ccccc3)c3ccccc3CN2CCCC(CN)NCC)cc1 (stereo not shown) What is its recorded pIC50?
7.22

What value of pIC50 has been reported for the following molecule? CCCCNc1ccc(C2C(CNC3CCCCC3)c3ccccc3CN2CCCC(CN)NCC)cc1 (stereo not shown)
6.82

Item under review: COc1ccc(CNC(CN)CCCCN2Cc3ccccc3C(CNCCc3ccc(O)cc3)C2c2cc(C(F)(F)F)cc(C(F)(F)F)c2)cc1 (stereo not shown) . Reported pIC50?
5.82

If you can, please state the reported pIC50 value of NCC(CCCN1Cc2ccccc2C(CO)C1c1ccc(O)cc1)NCCC1CCCCC1 (stereo not shown) .
5.65

For the molecule CCNc1ccc(C2C(CN)c3ccccc3CN2CCCC(CN)NCc2ccc(OC)cc2)cc1 (stereo not shown) , what pIC50 is on record?
7.05

Param item = CCNc1ccc(C2C(CN)c3ccccc3CN2CCCC(CN)NCCc2ccc(Br)cc2)cc1 (stereo not shown) ; retrieve measured pIC50.
6.92

What value of pIC50 has been recorded for this entry: CCCCNc1ccc(C2C(CNCCc3ccccc3)c3ccccc3CN2CCCC(CN)N2CCCC2)cc1 (stereo not shown)
7.15

# get_value(readout='pIC50', item= CCOc1ccc(C2C(CO)c3ccccc3CN2CCCC(CN)NCCC2CCCCC2)cc1 (stereo not shown) )
5.84

* * *

Listed here are molecules together with their documented pIC50.
molecular target: MCR-4 (Homo sapiens, UniProt P32245); construct: expressed in transfected cells; host or cells: HEK 293; assay: Melanocortin receptor binding assay, competition with 125I-HP 467, HEK 293 cells expressing hMCR-4; conditions: inhibition of binding of 125I-HP 467, HEK 293 cells expressing MCR-4; TRG 2414 library; read-out: MC-4 IC50
Sequence (P32245 whole entry): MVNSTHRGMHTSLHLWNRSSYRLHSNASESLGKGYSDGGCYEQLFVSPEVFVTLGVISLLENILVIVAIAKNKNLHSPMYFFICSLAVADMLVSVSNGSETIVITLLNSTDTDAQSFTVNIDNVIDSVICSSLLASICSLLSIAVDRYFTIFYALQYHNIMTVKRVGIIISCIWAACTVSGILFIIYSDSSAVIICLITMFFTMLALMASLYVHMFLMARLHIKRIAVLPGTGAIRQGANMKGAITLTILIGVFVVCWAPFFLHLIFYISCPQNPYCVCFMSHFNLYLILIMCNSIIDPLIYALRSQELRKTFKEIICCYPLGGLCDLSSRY
Scale for pIC50: -log10 of concentration given in mol/L; no unit attached.

Worked examples, 3 molecules total:
Molecule | pIC50
NCC(CCCCN1Cc2ccccc2C(CNCc2ccccc2C(F)(F)F)C1c1ccc(Cl)cc1Cl)NCc1ccccc1 (mixture of isomers) | 4.18
COc1cccc(CNCC2c3ccccc3CN(CCCCC(CN)NCCc3ccccc3)C2c2cccc(Oc3ccccc3)c2)c1 (mixture of isomers) | 5.02
CCOc1ccccc1CNCC1c2ccccc2CN(CCCCC(CN)NCCc2ccccc2)C1c1ccc(Oc2ccccc2)cc1 (stereo not shown) | 4.73

Endpoint output: pIC50 of CCCOc1ccc(C2C(CNCCc3ccccc3OC)c3ccccc3CN2CCCCC(N)CN)cc1 (stereo not shown) . Value?
5.27
